These measurements were taken from PubChem BioAssay.

test: growth suppression of beta-catenin knockout HCT116, pilot screen, human colon tumor cells (AID 823); details: CellTiter-Glo, 60 h, at 10 µM, hits give low values;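 further: 0% = wells killed by 20 µM Hyamine and 100% = untreated DMSO cell wells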
Inconclusive results are not listed. Calls of active or inactive are those of the source.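 How the source made its calls: active means cell viability at or below a set limit in both duplicate runs, the limit being the all-compound median minus 4 SD (cut at about 23% in these data, passing the limit was not always enough); inconclusive means no clear call, values can overlap the other calls; inactive means the rest.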
For each entry below, report its viability value.

Prompt: Provide viability value for the following molecule: O=C(CCn1c(=O)oc2ccccc21)Nc1ccc2c(c1)OCCO2
Completion: 103% (inactive)

Prompt: Specify reported viability for the molecule shown: COc1ccc(OC)c2sc(NC(=O)c3ccc(Cl)s3)nc12
Completion: 22% (active)

Prompt: Look up and state reported viability for CC1Cc2nc(SCC(=O)Nc3nccs3)n(Cc3ccccc3)c(=O)c2S1 (centres undefined)
Completion: 94.8% (inactive)

Prompt: Using the record for Cc1cc(C(=O)N2CCN(S(C)(=O)=O)CC2)sc1-c1ccccc1 , state its measured viability.
Completion: 94.9% (inactive)

Prompt: Write down viability measured for item CCOC(=O)c1cccc(NC(=O)Cn2cc3c(n2)CCC(C)C3)c1 (centres undefined)
Completion: 101% (inactive)

Prompt: Give a short answer stating reported viability for COc1ccc2c(c1)C(=O)CC(c1ccccc1F)O2 (centres undefined) .
Completion: 65.4% (inactive)

Prompt: Supply viability value. Item: CC(C)c1nnc(NC(=O)CCN2C(=O)c3ccccc3C2=O)s1
Completion: 104% (inactive)

Prompt: Determine from records and report viability for Cc1cc(C)n2c(SCC(=O)Nc3ccccc3)nnc2n1
Completion: 102% (inactive)

Prompt: Give viability for the following molecule: COC(=O)c1ccc(OCC(O)CN(CC(C)C)CC(C)C)cc1 (centres undefined)
Completion: 76.1% (inactive)
